# System: Plasmodium falciparum
# assayProcedure: Antimalarial activity against Plasmodium falciparum
# Assay type: functional, organism-based
A collection of molecules and their measured log10 of EC50
assayReadout: log10 of EC50 (log10 of the value in nM)

{"columns": ["molecule", "targetOfAssay", "log10 of EC50"],
 "data": [
  ["C[C@@H]1CC[C@H]2C(C[C@]3(C)C(=O)O[C@@H]4O[C@]5(C)CC[C@H]6[C@H](C)CC[C@@H]3[C@@]46OO5)C(=O)O[C@@H]3O[C@]4(C)CC[C@@H]1C32OO4 (stereo partly drawn)", "Plasmodium falciparum", 0.00],
  ["C[C@@H]1CC[C@H]2[C@@H](CCCCc3ccccc3)C(=O)O[C@@H]3O[C@]4(C)CC[C@@H]1[C@]32OO4", "Plasmodium falciparum", 0.92],
  ["CCCC[C@@H]1C(=O)O[C@@H]2O[C@]3(C)CC[C@H]4[C@H](C)CC[C@@H]1[C@@]24OO3", "Plasmodium falciparum", 1.14],
  ["CCCCCC[C@@H]1C(=O)O[C@@H]2O[C@]3(C)CC[C@H]4[C@H](C)CC[C@@H]1[C@@]24OO3", "Plasmodium falciparum", 1.14],
  ["CC1CCC2C(CCCCCCC3(CC4C(=O)OC5OC6(C)CCC7C(C)CCC4C57OO6)C(=O)OC4OC5(C)CCC6C(C)CCC3C46OO5)C(=O)OC3OC4(C)CCC1C32OO4 (stereo not drawn)", "Plasmodium falciparum", 0.38],
  ["CCCC[C@H]1C(=O)O[C@@H]2O[C@]3(C)CC[C@H]4[C@H](C)CC[C@@H]1[C@@]24OO3", "Plasmodium falciparum", 1.05],
  ["CCC[C@H]1C(=O)O[C@@H]2O[C@]3(C)CC[C@H]4[C@H](C)CC[C@@H]1[C@@]24OO3", "Plasmodium falciparum", 0.80],
  ["C[C@@H]1CC[C@H]2[C@H](CCCCCCC[C@@H]3C(=O)O[C@@H]4O[C@@]5(C)CC[C@H]6[C@H](C)CC[C@@H]3[C@@]46OO5)C(=O)O[C@@H]3O[C@@]4(C)CC[C@@H]1[C@]32OO4", "Plasmodium falciparum", 0.04],
  ["C[C@@H]1CC[C@H]2[C@H](Cc3ccc(F)cc3)C(=O)O[C@@H]3O[C@]4(C)CC[C@@H]1[C@]32OO4", "Plasmodium falciparum", 1.11],
  ["CC1CCC2C(CC3(Cc4ccc(F)cc4)C(=O)OC4OC5(C)CCC6C(C)CCC3C46OO5)C(=O)OC3OC4(C)CCC1C32OO4 (stereo not drawn)", "Plasmodium falciparum", 0.36],
  ["CCCC1(CC2C(=O)OC3OC4(C)CCC5C(C)CCC2C35OO4)C(=O)OC2OC3(C)CCC4C(C)CCC1C24OO3 (stereo not drawn)", "Plasmodium falciparum", 0.64],
  ["C[C@@H]1CC[C@H]2[C@H](CCCCc3ccccc3)C(=O)O[C@@H]3O[C@]4(C)CC[C@@H]1[C@]32OO4", "Plasmodium falciparum", 1.01]
]}

Hello, the source for this data is ChEMBL document CHEMBL1134326, in case you need it.
